# Measurement Target: T1, human B-cell maturation antigen (BCMA) on cells (human, UniProt Q02223 1-184)
# T1 construct: Recombinant on HEK293 or K562 cells, or endogenous on cell lines (H929, RPMI 8226, OPM2, MM1S, Daudi); also called hBCMA; huBCMA
# T1 chain: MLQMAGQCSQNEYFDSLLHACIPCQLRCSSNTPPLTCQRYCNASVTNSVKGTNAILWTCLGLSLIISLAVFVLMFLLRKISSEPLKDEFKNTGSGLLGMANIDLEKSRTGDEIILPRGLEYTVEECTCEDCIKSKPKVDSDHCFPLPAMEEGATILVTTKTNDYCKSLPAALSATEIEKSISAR
# Measurement Description: flow cytometry on BCMA-expressing HEK293 cells vs control cells, crude lysate or bacterial supernatant; clone listed in Table E2
Test Readout: binding result

>  <Binder>
BCMA-26 scFv (scFv) scFv: EVQLVESGGGLVKPGGSLRLSCAASGFTFSDYYMSWIRQAPGKGLEWVSYISSSGSTIYYADSVKGRFTISRDNAKNSLYLQMNSLRAEDTAVYYCAKVDGPPSFDIWGQGTMVTVSSGGGGSGGGGSGGGGSSYVLTQPPSVSVAPGQTARITCGANNIGSKSVHWYQQKPGQAPMLVVYDDDDRPSGIPERFSGSNSGNTATLTISGVEAGDEADYFCHLWDRSRDHYVFGTGTKLTVL

>  <Observed>
binds

$$$$
>  <Binder>
BCMA-36 scFv (scFv) scFv: QVQLVQSGGGLVKPGGSLRLSCAASGFTFSDYYMSWIRQAPGKGLEWVSYISSSGSTIYYADSVKGRFTISRDNAKNSLYLQMNSLRAEDTAVYYCARVDGDYVDDYWGQGTLVTVSSGGGGSGGGGSGGGGSQSVLTQEPSLTVSPGETVTLTCGSSTGPVTSAHSPSWFQKKPGQAPTTLIYETTNRHSWTPARFSGSLLGGKAALTLSGAQPEDEADYYCLLSSGDARMVFGGGTKLTVL

>  <Observed>
binds

$$$$

All figures here come from patent US20260109774A1.
